Each recorded value in this set is attributed to the supplement of paper PMC10307832.

Test system: NCI-H2126
Assay: relative viability (nuclei count vs DMSO), 5 days (fraction); higher = more cells survive
Conditions: first compound 20 µM
PROPERTY_LABEL: relative viability
# print the numeric value only

Please review the entries below; each comes with its answer.
Cc1csc(=NC2CCCCC2)n1/N=C/c1ccc(O)c(O)c1O [MIM1] + CC1(C)CCC(c2ccc(Cl)cc2)=C(CN2CCN(c3ccc(C(=O)NS(=O)(=O)c4ccc(N[C@H](CCN5CCOCC5)CSc5ccccc5)c(S(=O)(=O)C(F)(F)F)c4)cc3)CC2)C1 [Navitoclax] (partner 0.5 µM) ... 0.812
Cc1csc(=NC2CCCCC2)n1/N=C/c1ccc(O)c(O)c1O [MIM1] + C[C@]1(O)C[C@@H](c2nc(-c3ccc4ccc(-c5ccccc5)nc4c3)c3c(N)nccn32)C1 [Linsitinib] (partner 1 µM) ... 0.702

Prompt line: Report relative viability for Cc1csc(=NC2CCCCC2)n1/N=C/c1ccc(O)c(O)c1O [MIM1] + Nc1ncn([C@H]2C[C@H](O)[C@@H](CO)O2)c(=O)n1 [Decitabine] (partner 2 µM)
Response line: 0.488

Prompt line: Given Cc1csc(=NC2CCCCC2)n1/N=C/c1ccc(O)c(O)c1O [MIM1] + CCNC(=O)c1noc(-c2cc(C(C)C)c(O)cc2O)c1-c1ccc(CN2CCOCC2)cc1 [Luminespib] (partner 0.01 µM) , respond with its relative viability.
Response line: 0.466

Prompt line: Quote relative viability reported for Cc1csc(=NC2CCCCC2)n1/N=C/c1ccc(O)c(O)c1O [MIM1] + CC(=O)Nc1cccc(-n2c(=O)n(C3CC3)c(=O)c3c(Nc4ccc(I)cc4F)n(C)c(=O)c(C)c32)c1 [Trametinib] (partner 0.02 µM) please.
Response line: 0.388

* * *

Item-by-item account of relative viability
Test system: NCI-H2405
Assay: relative viability (nuclei count vs DMSO), 5 days (fraction); higher = more cells survive
Conditions: first compound 0.01 µM

Solved cases below.
Cc1cn(-c2cc(NC(=O)c3ccc(C)c(Nc4nccc(-c5cccnc5)n4)c3)cc(C(F)(F)F)c2)cn1 [Nilotinib] + O=C(c1cc(Cc2n[nH]c(=O)c3ccccc23)ccc1F)N1CCN(C(=O)C2CC2)CC1 [Olaparib] (partner 8 µM) ... 0.858
Cc1cn(-c2cc(NC(=O)c3ccc(C)c(Nc4nccc(-c5cccnc5)n4)c3)cc(C(F)(F)F)c2)cn1 [Nilotinib] + Nc1ncn([C@H]2C[C@H](O)[C@@H](CO)O2)c(=O)n1 [Decitabine] (partner 2 µM) ... 0.798

Prompt line: Look up relative viability of Cc1cn(-c2cc(NC(=O)c3ccc(C)c(Nc4nccc(-c5cccnc5)n4)c3)cc(C(F)(F)F)c2)cn1 [Nilotinib] + C[C@@H](Oc1cc(-c2cnn(C3CCNCC3)c2)cnc1N)c1c(Cl)ccc(F)c1Cl [Crizotinib] (partner 1 µM) and report it.
Response line: 0.84

Prompt line: Give the measured relative viability for Cc1cn(-c2cc(NC(=O)c3ccc(C)c(Nc4nccc(-c5cccnc5)n4)c3)cc(C(F)(F)F)c2)cn1 [Nilotinib] + CC(=O)c1c(C)c2cnc(Nc3ccc(N4CCNCC4)cn3)nc2n(C2CCCC2)c1=O [Palbociclib] (partner 0.5 µM)
Response line: 0.529

* * *

Tested on: A-427
Experiment: relative viability (nuclei count vs DMSO), 5 days (fraction); higher = more cells survive
Conditions: first compound 0.003162 µM
Catalogue of relative viability values
Lab note: jot the number down without any unit.

Cc1cn(-c2cc(NC(=O)c3ccc(C)c(Nc4nccc(-c5cccnc5)n4)c3)cc(C(F)(F)F)c2)cn1 [Nilotinib] + COc1cccc2cc(-c3nc([C@H]4CC[C@H](C(=O)O)CC4)n4ncnc(N)c34)[nH]c12 [OSI-027] (partner 0.5 µM) ... 0.456
Cc1cn(-c2cc(NC(=O)c3ccc(C)c(Nc4nccc(-c5cccnc5)n4)c3)cc(C(F)(F)F)c2)cn1 [Nilotinib] + CC(=O)c1c(C)c2cnc(Nc3ccc(N4CCNCC4)cn3)nc2n(C2CCCC2)c1=O [Palbociclib] (partner 0.5 µM) ... 0.493

Prompt line: Specify measured relative viability for Cc1cn(-c2cc(NC(=O)c3ccc(C)c(Nc4nccc(-c5cccnc5)n4)c3)cc(C(F)(F)F)c2)cn1 [Nilotinib] + Nc1ncn([C@H]2C[C@H](O)[C@@H](CO)O2)c(=O)n1 [Decitabine] (partner 2 µM) .
Response line: 0.565

Prompt line: Recall and state the measured relative viability for Cc1cn(-c2cc(NC(=O)c3ccc(C)c(Nc4nccc(-c5cccnc5)n4)c3)cc(C(F)(F)F)c2)cn1 [Nilotinib] + O=C(CCCCCCC(=O)Nc1ccccc1)NO [Vorinostat] (partner 1 µM) .
Response line: 0.892

* * *

Consider the following molecules and their measured relative viability readings.
System: EMC-BAC-2
Experiment: relative viability (nuclei count vs DMSO), 5 days (fraction); higher = more cells survive
Conditions: first compound 0.02 µM
The reply should be a number, written without any unit.

CN1CCN(CCOc2cc(OC3CCOCC3)c3c(Nc4c(Cl)ccc5c4OCO5)ncnc3c2)CC1 [Saracatinib] + O=C(CCCCCCC(=O)Nc1ccccc1)NO [Vorinostat] (partner 1 µM) ... 0.417
CN1CCN(CCOc2cc(OC3CCOCC3)c3c(Nc4c(Cl)ccc5c4OCO5)ncnc3c2)CC1 [Saracatinib] + Nc1ncn([C@H]2C[C@H](O)[C@@H](CO)O2)c(=O)n1 [Decitabine] (partner 2 µM) ... 1.05
CCNC(=O)c1noc(-c2cc(C(C)C)c(O)cc2O)c1-c1ccc(CN2CCOCC2)cc1 [Luminespib] + CC1(C)CCC(c2ccc(Cl)cc2)=C(CN2CCN(c3ccc(C(=O)NS(=O)(=O)c4ccc(N[C@H](CCN5CCOCC5)CSc5ccccc5)c(S(=O)(=O)C(F)(F)F)c4)cc3)CC2)C1 [Navitoclax] (partner 0.5 µM) ... 1.12
CN1CCN(CCOc2cc(OC3CCOCC3)c3c(Nc4c(Cl)ccc5c4OCO5)ncnc3c2)CC1 [Saracatinib] + COc1cc2c(Oc3ccc(NC(=O)C4(C(=O)Nc5ccc(F)cc5)CC4)cc3F)ccnc2cc1OCCCN1CCOCC1 [Foretinib] (partner 0.25 µM) ... 1.01
CCNC(=O)c1noc(-c2cc(C(C)C)c(O)cc2O)c1-c1ccc(CN2CCOCC2)cc1 [Luminespib] + CC(=O)Nc1cccc(-n2c(=O)n(C3CC3)c(=O)c3c(Nc4ccc(I)cc4F)n(C)c(=O)c(C)c32)c1 [Trametinib] (partner 0.02 µM) ... 0.643
CCNC(=O)c1noc(-c2cc(C(C)C)c(O)cc2O)c1-c1ccc(CN2CCOCC2)cc1 [Luminespib] + CS(=O)(=O)CCNCc1ccc(-c2ccc3ncnc(Nc4ccc(OCc5cccc(F)c5)c(Cl)c4)c3c2)o1 [Lapatinib] (partner 2 µM) ... 0.597

Prompt line: Look up and state reported relative viability for CCNC(=O)c1noc(-c2cc(C(C)C)c(O)cc2O)c1-c1ccc(CN2CCOCC2)cc1 [Luminespib] + C[C@]1(O)C[C@@H](c2nc(-c3ccc4ccc(-c5ccccc5)nc4c3)c3c(N)nccn32)C1 [Linsitinib] (partner 1 µM)
Response line: 0.665

Prompt line: Please give the documented relative viability of CCNC(=O)c1noc(-c2cc(C(C)C)c(O)cc2O)c1-c1ccc(CN2CCOCC2)cc1 [Luminespib] + CS(=O)(=O)N1CCN(Cc2cc3nc(-c4cccc5[nH]ncc45)nc(N4CCOCC4)c3s2)CC1 [Pictilisib] (partner 1 µM)
Response line: 0.417

Prompt line: Supply recorded relative viability for CCNC(=O)c1noc(-c2cc(C(C)C)c(O)cc2O)c1-c1ccc(CN2CCOCC2)cc1 [Luminespib] + Cc1nc(NC(=O)N2CCC[C@H]2C(N)=O)sc1-c1ccnc(C(C)(C)C(F)(F)F)c1 [Alpelisib] (partner 2 µM) here.
Response line: 0.61

Prompt line: Using the record for CN1CCN(CCOc2cc(OC3CCOCC3)c3c(Nc4c(Cl)ccc5c4OCO5)ncnc3c2)CC1 [Saracatinib] + CS(=O)(=O)CCNCc1ccc(-c2ccc3ncnc(Nc4ccc(OCc5cccc(F)c5)c(Cl)c4)c3c2)o1 [Lapatinib] (partner 2 µM) , state its measured relative viability.
Response line: 0.91

Prompt line: Fill in reported relative viability for this entry: CCNC(=O)c1noc(-c2cc(C(C)C)c(O)cc2O)c1-c1ccc(CN2CCOCC2)cc1 [Luminespib] + NC(=O)Nc1cc(-c2cccc(F)c2)sc1C(=O)N[C@H]1CCCNC1 [AZD7762] (partner 0.2 µM)
Response line: 0.689

Prompt line: Assign relative viability to the following record: CN1CCN(CCOc2cc(OC3CCOCC3)c3c(Nc4c(Cl)ccc5c4OCO5)ncnc3c2)CC1 [Saracatinib] + COc1cccc2cc(-c3nc([C@H]4CC[C@H](C(=O)O)CC4)n4ncnc(N)c34)[nH]c12 [OSI-027] (partner 0.5 µM)
Response line: 0.412

Prompt line: Give the measured relative viability for CN1CCN(CCOc2cc(OC3CCOCC3)c3c(Nc4c(Cl)ccc5c4OCO5)ncnc3c2)CC1 [Saracatinib] + C[C@@H](Oc1cc(-c2cnn(C3CCNCC3)c2)cnc1N)c1c(Cl)ccc(F)c1Cl [Crizotinib] (partner 1 µM)
Response line: 0.701

Prompt line: Fill in reported relative viability for this entry: CCNC(=O)c1noc(-c2cc(C(C)C)c(O)cc2O)c1-c1ccc(CN2CCOCC2)cc1 [Luminespib] + Nc1nc2[nH]cc(CCc3ccc(C(=O)N[C@@H](CCC(=O)O)C(=O)O)cc3)c2c(=O)[nH]1 [Pemetrexed] (partner 0.2 µM)
Response line: 0.573

Prompt line: Specify relative viability for CCNC(=O)c1noc(-c2cc(C(C)C)c(O)cc2O)c1-c1ccc(CN2CCOCC2)cc1 [Luminespib] + COc1cc2c(Oc3ccc(NC(=O)C4(C(=O)Nc5ccc(F)cc5)CC4)cc3F)ccnc2cc1OCCCN1CCOCC1 [Foretinib] (partner 0.25 µM) and stop.
Response line: 0.942

Prompt line: Read the entry CN1CCN(CCOc2cc(OC3CCOCC3)c3c(Nc4c(Cl)ccc5c4OCO5)ncnc3c2)CC1 [Saracatinib] + C[C@]1(O)C[C@@H](c2nc(-c3ccc4ccc(-c5ccccc5)nc4c3)c3c(N)nccn32)C1 [Linsitinib] (partner 1 µM) and write its reported relative viability.
Response line: 0.813
